// provenance: patent US20160136231A1

biological target: human ChemR23 (CMKLR1), PathHunter β-Arrestin CHO cell line (human, UniProt Q99788 1-373); experiment: cell-based or functional assay
Sequence (Q99788 whole entry): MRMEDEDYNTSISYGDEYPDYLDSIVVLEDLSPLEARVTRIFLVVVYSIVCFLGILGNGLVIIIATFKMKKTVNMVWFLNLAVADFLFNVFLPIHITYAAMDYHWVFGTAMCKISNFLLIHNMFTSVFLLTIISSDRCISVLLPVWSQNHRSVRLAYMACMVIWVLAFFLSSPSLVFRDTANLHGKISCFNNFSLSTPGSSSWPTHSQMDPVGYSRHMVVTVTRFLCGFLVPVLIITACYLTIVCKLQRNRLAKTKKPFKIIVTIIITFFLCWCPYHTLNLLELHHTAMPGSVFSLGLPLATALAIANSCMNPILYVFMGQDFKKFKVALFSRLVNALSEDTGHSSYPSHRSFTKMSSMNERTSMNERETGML
Recorded metric: % Max Activity, PathHunter β-Arrestin agonist (%)
Give the number; % is assumed, so skip it.

Below, each entry is followed by its recorded % Max Activity, PathHunter β-Arrestin agonist result.
Binder	Result unit	Experimental result
AGEDPHSFYFPGQFAFS [human chemerin C17 peptide]	%	67.5
AGEDPHSFYFPGQFAF [human chemerin C16 peptide]	%	98.6
AGEDPHSFYFPGQFA [human chemerin C15 peptide]	%	0.8

Now look at this entry.
Name the recorded % Max Activity, PathHunter β-Arrestin agonist for AGEDPHGYFLPGQFA [mouse chemerin C15 peptide] . 0.4
